Hi there, I'd appreciate the recorded melting point for every entry that follows.

Enquiry: Requested read-out: melting point. Entry: CCOC[C@H]1COCCN1CC#CCN1CCN(C(=O)c2cc(C(F)(F)F)cc(C(F)(F)F)c2)[C@H](Cc2ccc(C)c(C)c2)C1.Cl.Cl
Return: 155 to 160 °C

Enquiry: For COC[C@H]1CCCN1CC#CCN1CCN(C(=O)c2cc(C(F)(F)F)cc(C(F)(F)F)c2)[C@H](Cc2c[nH]c3ccccc23)C1.Cl.Cl then?
Return: 190 to 195 °C

Enquiry: Could you do the same for CC[C@@H]1COCCN1CC#CCN1CCN(C(=O)c2cc(C(F)(F)F)cc(C(F)(F)F)c2)[C@H](Cc2c[nH]c3ccccc23)C1.Cl.Cl , please?
Return: 176 to 180 °C

Enquiry: Let us now turn to Cc1ccc(C[C@@H]2CN(CCN3CCOCC3(C)C)CCN2C(=O)c2cc(C(F)(F)F)cc(C(F)(F)F)c2)cc1C.Cl.Cl
Return: 190 to 210 °C

Enquiry: Okay, and CN(C)c1cccc(CC2CN(CC#CCN3CCOCC3(C)C)CCN2C(=O)c2cc(C(F)(F)F)cc(C(F)(F)F)c2)c1.Cl.Cl.Cl (centres unmarked) ?
Return: 205 to 210 °C

Enquiry: Query Cl.Cl.O=C(c1cc(Cl)cc(Cl)c1)N1CCN(CC#CCN2CCOCC2)C[C@H]1Cc1ccc(C(F)(F)F)cc1 next
Return: 186 °C (dec.)

Enquiry: Can you check Cl.Cl.O=C(c1cc(C(F)(F)F)cc(C(F)(F)F)c1)N1CCN(CCCCc2ccccn2)C[C@H]1Cc1c[nH]c2ccccc12 next?
Return: 155 to 160 °C

Enquiry: Now consider Cc1ccc(C[C@@H]2CN(CC#CCN3CCOC[C@@H]3CC(C)C)CCN2C(=O)c2cc(C(F)(F)F)cc(C(F)(F)F)c2)cc1C.Cl.Cl .
Return: 125 to 138 °C

Enquiry: Next up: COc1ccncc1CCCN1CCN(C(=O)c2cc(C(F)(F)F)cc(C(F)(F)F)c2)[C@H](Cc2c[nH]c3ccccc23)C1.Cl.Cl
Return: 165 to 170 °C

Enquiry: Request: COC[C@@H]1COCCN1CCN1CCN(C(=O)c2cc(C(F)(F)F)cc(C(F)(F)F)c2)[C@H](Cc2c[nH]c3ccccc23)C1.Cl.Cl
Return: 130 to 150 °C

Enquiry: Follow-up entry: COCC1CN(CCN2CCN(C(=O)c3cc(C(F)(F)F)cc(C(F)(F)F)c3)[C@H](Cc3ccc(C)c(C)c3)C2)CCO1.Cl.Cl (some centres unmarked)
Return: 150 to 154 °C

Enquiry: Also CN(C)c1cc(C(=O)N2CCN(CC#CCN3CCOCC3(C)C)C[C@H]2Cc2c[nH]c3ccccc23)cc(C(F)(F)F)c1.Cl.Cl , if possible.
Return: 210 to 225 °C

Enquiry: Entry to check: Cc1ccc(C[C@@H]2CN(CC#Cc3ccc(N)nc3)CCN2C(=O)c2cc(C(F)(F)F)cc(C(F)(F)F)c2)cc1C.Cl.Cl
Return: 183 to 189 °C

Enquiry: Another: Cl.Cl.O=C(c1cc(Cl)cc(Cl)c1)N1CCN(CC#CCN2CCOCC2)C[C@H]1Cc1ccc2ccccc2c1
Return: 171 °C (dec.)

Enquiry: Subsequent entry: COC[C@@H]1COCCN1C/C=C/CN1CCN(C(=O)c2cc(C(F)(F)F)cc(C(F)(F)F)c2)[C@H](Cc2ccc(C)c(C)c2)C1.Cl.Cl
Return: 240 to 250 °C

Enquiry: Next molecule up: COc1ccc(C#CCN2CCN(C(=O)c3cc(C(F)(F)F)cc(C(F)(F)F)c3)[C@H](Cc3c[nH]c4ccccc34)C2)cn1.Cl.Cl
Return: 183 to 189 °C

Enquiry: Query COc1cccc(CC2CN(CC#CCN3CCOCC3(C)C)CCN2C(=O)c2cc(C(F)(F)F)cc(C(F)(F)F)c2)c1OC.Cl.Cl (centres unmarked) next
Return: 170 °C

Enquiry: Param item: COC[C@@H]1COCCN1CCCN1CCN(C(=O)c2cc(C(F)(F)F)cc(C(F)(F)F)c2)[C@H](Cc2ccc(C)c(C)c2)C1.Cl.Cl
Return: 80 to 100 °C

Enquiry: What would you report for COc1ccncc1C#CCN1CCN(C(=O)c2cc(C(F)(F)F)cc(C(F)(F)F)c2)[C@H](Cc2ccc(C)c(C)c2)C1.Cl.Cl ?
Return: 150 to 153 °C

Enquiry: Now this one: COc1ccc(CCCN2CCN(C(=O)c3cc(C(F)(F)F)cc(C(F)(F)F)c3)[C@H](Cc3ccc(C)c(C)c3)C2)cn1.Cl.Cl
Return: 127 to 137 °C

Enquiry: Please give the result for Cc1ccc(C[C@@H]2CN(CCCn3cccn3)CCN2C(=O)c2cc(C(F)(F)F)cc(C(F)(F)F)c2)cc1C.Cl too.
Return: 73 to 75 °C

Enquiry: Try this molecule too: Cl.Cl.O=C(c1cc(C(F)(F)F)cc(C(F)(F)F)c1)N1CCN(CCC#Cc2cccnc2)C[C@H]1Cc1c[nH]c2ccccc12
Return: 175 to 185 °C

Enquiry: How about CCOC[C@H]1COCCN1CCN1CCN(C(=O)c2cc(C(F)(F)F)cc(C(F)(F)F)c2)[C@H](Cc2ccc(C)c(C)c2)C1.Cl.Cl ?
Return: 60 to 65 °C
